Biological target: human plasma renin (Homo sapiens)
Sequence (P00797 67-406): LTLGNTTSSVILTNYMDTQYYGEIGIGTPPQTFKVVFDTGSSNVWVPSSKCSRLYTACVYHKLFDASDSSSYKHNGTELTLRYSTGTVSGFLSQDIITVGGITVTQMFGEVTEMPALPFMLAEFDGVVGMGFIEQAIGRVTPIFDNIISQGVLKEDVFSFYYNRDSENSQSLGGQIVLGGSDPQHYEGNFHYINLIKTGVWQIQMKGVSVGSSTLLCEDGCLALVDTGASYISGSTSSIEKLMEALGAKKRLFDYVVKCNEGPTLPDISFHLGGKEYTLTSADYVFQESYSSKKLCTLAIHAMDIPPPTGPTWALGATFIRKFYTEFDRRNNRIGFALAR
Experiment: Inhibition of angiotensin I formation in human plasma (Renin-Maia radioimmunoassay)
Settings: 37° C., 1 hour, % residual plasma renin activity by angiotensin I RIA
Known IC50 of a selection of compounds

The following compounds have reported results that may help.
>>> measured("CCC[C@H](NC(=O)[C@H](Cc1ccccc1)NC(=O)CC(C)C)C(=O)NC(CC1CCC(C)CC1)B1OC(C)(C)C(C)(C)O1 (some centres unmarked)")
"2.8 µM"
>>> measured("CCC[C@H](NC(=O)C(Cc1cccs1)CS(=O)(=O)C(C)(C)C)C(=O)NC(CC1CCCCC1)B1OC(C)(C)C(C)(C)O1 (some centres unmarked)")
"0.28 µM"
>>> measured("CCC[C@H](NC(=O)[C@H](Cc1ccccc1)NC(=O)CC(C)C)C(=O)NC(CC1CCCCC1)B1OC2CC3CC(C3(C)C)C2(C)O1 (single isomer, unassigned)")
"2.4 µM"
>>> measured("CCC[C@H](NC(=O)[C@H](Cc1ccccc1)NC(=O)CC(C)C)C(=O)NC(CC1CCCCC1)B(O)O (some centres unmarked)")
"0.55 µM"
>>> measured("CC(C)CC(=O)N[C@@H](Cc1ccccc1)C(=O)N[C@@H](Cc1c[nH]cn1)C(=O)NC(CC1CCCCCCC1)B1OC(C)(C)C(C)(C)O1 (some centres unmarked)")
"9 µM"
>>> measured("CC1(C)OB(C(CC2CCCCCC2)NC(=O)[C@H](Cc2cccs2)NC(=O)C(Cc2cccs2)CS(=O)(=O)C(C)(C)C)OC1(C)C (some centres unmarked)")
"3.6 µM"
>>> measured("CCC[C@H](NC(=O)C(Cc1ccccc1)CS(=O)(=O)C(C)(C)C)C(=O)NC(CC1CCCC1)B1OC(C)(C)C(C)(C)O1 (some centres unmarked)")
"2.4 µM"
>>> measured("CCC[C@H](NC(=O)[C@H](Cc1ccccc1)NC(=O)CC(C)C)C(=O)NC(CC1CCCCCC1)B1OC(C)(C)C(C)(C)O1 (some centres unmarked)")
"3 µM"

Would you kindly look at the next entry?
**Query** # query: IC50 of entry CCCC[C@H](NC(=O)[C@H](Cc1ccccc1)NC(=O)CC(C)C)C(=O)NC(CC1CCCCC1)B1OC(C)(C)C(C)(C)O1 (some centres unmarked)
**Result** 1 µM

====

Target: human plasma renin (Homo sapiens, UniProt P00797)
Test: Inhibition of angiotensin I formation in human plasma (Renin-Maia radioimmunoassay)
Conditions: 37° C., 1 hour, % residual plasma renin activity by angiotensin I RIA
Known IC50 of a selection of compounds
Dear colleague, please return just the value in nM, with no unit written.

>>> measured("CC(C)CC(=O)N[C@@H](Cc1ccccc1)C(=O)N[C@@H](Cc1cccs1)C(=O)NC(CC1CCCCC1)B1OC(C)(C)C(C)(C)O1 (stereo partly drawn)")
670
>>> measured("CCC[C@H](NC(=O)C(Cc1cccc2ccccc12)CS(=O)(=O)C(C)(C)C)C(=O)NC(CC(C)C)B1OC(C)(C)C(C)(C)O1 (stereo partly drawn)")
950

**Query** Form entry - test system: human plasma renin (Homo sapiens, UniProt P00797); read-out: IC50; compound: CC(C)CC(=O)N[C@@H](Cc1cccs1)C(=O)N[C@@H](Cc1c[nH]cn1)C(=O)NC(CC1CCCCC1)B1OC(C)(C)C(C)(C)O1 (stereo partly drawn)
**Result** 450

**Query** Form entry - test system: human plasma renin (Homo sapiens, UniProt P00797); read-out: IC50; compound: CC(C)[C@H](NC(=O)C(Cc1ccccc1)CS(=O)(=O)C(C)(C)C)C(=O)NC(CC1CCCCC1)B1OC(C)(C)C(C)(C)O1 (stereo partly drawn)
**Result** 2100

**Query** Form entry - test system: human plasma renin (Homo sapiens, UniProt P00797); read-out: IC50; compound: CCC[C@H](NC(=O)C(Cc1cccs1)CS(=O)(=O)C(C)(C)C)C(=O)NC(CC1CCCCCC1)B1OC(C)(C)C(C)(C)O1 (stereo partly drawn)
**Result** 1500

**Query** Form entry - test system: human plasma renin (Homo sapiens, UniProt P00797); read-out: IC50; compound: CCC[C@H](NC(=O)C(Cc1cccc2ccccc12)CS(=O)(=O)C(C)(C)C)C(=O)NC(CC(CC)CC)B1OC(C)(C)C(C)(C)O1 (stereo partly drawn)
**Result** 1800

====

Molecular target: human plasma renin (Homo sapiens)
Experiment: Inhibition of angiotensin I formation in human plasma (Renin-Maia radioimmunoassay)
Settings: 37° C., 1 hour, % residual plasma renin activity by angiotensin I RIA
The label is condition met for IC50 below 2 µM and condition not met for IC50 equal to or exceeding 2 µM.

# example entries with known answers
>>> classification("CCC[C@H](NC(=O)C(Cc1ccccc1)CS(=O)(=O)C(C)(C)C)C(=O)NC(CC(CC)CC)B1OC(C)(C)C(C)(C)O1 (some centres unmarked) [Example 52]")
"condition not met"
>>> classification("CCC[C@H](NC(=O)C(Cc1ccccc1)CS(=O)(=O)C(C)(C)C)C(=O)NC(CC1CCCCC1)B1OC(C)(C)C(C)(C)O1 (some centres unmarked) [Example 36]")
"condition met"
>>> classification("CCC[C@H](NC(=O)[C@H](Cc1ccccc1)NC(=O)CC(C)C)C(=O)NC(CC1CCCCC1)B1OC(C)(C)C(C)(C)O1 (some centres unmarked) [Example 1]")
"condition met"
>>> classification("CC1(C)OB(C(CC2CCCCC2)NC(=O)[C@H](Cc2cccs2)NC(=O)C(Cc2cccs2)CS(=O)(=O)C(C)(C)C)OC1(C)C (some centres unmarked) [Example 43]")
"condition met"
>>> classification("CC1(C)OB(C(CC2CCCCC2)NC(=O)[C@H](CC(N)=O)NC(=O)C(Cc2cccs2)CS(=O)(=O)C(C)(C)C)OC1(C)C (some centres unmarked) [Example 54]")
"condition met"
>>> classification("CC(C)CC(=O)N[C@@H](Cc1ccccc1)C(=O)N[C@@H](Cc1c[nH]cn1)C(=O)NC(CC1CCCCCC1)B1OC(C)(C)C(C)(C)O1 (some centres unmarked) [Example 19]")
"condition not met"

In the following, a different molecule is considered.
**Query** Is the reported IC50 for CCC[C@H](NC(=O)C(Cc1cccc2ccccc12)CS(=O)(=O)C(C)(C)C)C(=O)NC(CC1CCCC1)B1OC(C)(C)C(C)(C)O1 (some centres unmarked) [Example 50] strictly below 2 µM?
**Result** condition met

Value source: patent US5169841A
